Data origin, for the record: patent US4301313A

Examples of molecules with documented Estimated ED50 follow.
# test method notes: analgesic activity, acetic acid-induced writhing
# Format: in vivo, mouse (albino male)
# condition label: mouse, p.o., dose reducing writhing frequency by 50%; 30, 90, 180 minutes after administration

Example cases with answers are listed next.
C#Cc1ccc(-c2ccccc2C)cc1 ... 35 mg/kg
C#Cc1ccc(-c2c(F)cccc2F)cc1 ... < 100 mg/kg

[ask] Fill in the blank: the reported Estimated ED50 of `C#Cc1ccc(-c2ccccc2F)cc1` is ____.
[reply] 20 mg/kg

[ask] Fill in the blank: the reported Estimated ED50 of `C#Cc1ccc(Oc2ccccc2)cc1C` is ____.
[reply] < 100 mg/kg

[ask] Fill in the blank: the reported Estimated ED50 of `C#Cc1ccc(-c2ccccc2)c(Cl)c1` is ____.
[reply] 30 mg/kg

[ask] Fill in the blank: the reported Estimated ED50 of `C#Cc1ccc(-c2ccccc2)c(C)c1` is ____.
[reply] 50 mg/kg

[ask] Fill in the blank: the reported Estimated ED50 of `C#Cc1cc(C)c(Oc2ccccc2)c(C)c1` is ____.
[reply] < 100 mg/kg

----------
# test method notes: carrageenin-induced hind paw inflammation
# Type: in vivo
# condition label: Rattus norvegicus, 10 mg./kg.
Threshold rule: inhibition in vivo at 10 mg/kg greater than or equal to 20% is TRUE; below that, FALSE.

C#Cc1ccc(-c2ccccc2)c(C)c1 [(3-methyl-4-phenylphenyl)acetylene, (3-Methyl-4-phenylphenyl)acetylene] ... TRUE

[ask] Does inhibition in vivo at 10 mg/kg meet or surpass 20% for C#Cc1ccc(Oc2ccccc2F)cc1 [(4-(2-fluorophenoxy)phenyl)acetylene, (4-(2-Fluorophenoxy)phenyl)acetylene] ?
[reply] TRUE

[ask] Does inhibition in vivo at 10 mg/kg meet or surpass 20% for C#Cc1cccc(Oc2ccccc2)c1 [(3-phenoxyphenyl)acetylene, (3-Phenoxyphenyl)acetylene] ?
[reply] FALSE

[ask] Does inhibition in vivo at 10 mg/kg meet or surpass 20% for C#Cc1ccc(Oc2ccccc2)c(C)c1 [(3-methyl-4-phenoxyphenyl)acetylene, (3-Methyl-4-phenoxyphenyl)acetylene] ?
[reply] FALSE

[ask] Does inhibition in vivo at 10 mg/kg meet or surpass 20% for C#Cc1ccc(-c2cccc(F)c2)cc1 [(4-(3-fluorophenyl)phenyl)acetylene, (4-(3-Fluorophenyl)phenyl)acetylene] ?
[reply] FALSE

[ask] Does inhibition in vivo at 10 mg/kg meet or surpass 20% for C#Cc1ccc(-c2ccccc2)cc1 [4-biphenylylacetylene, 4-Biphenylylacetylene] ?
[reply] TRUE

[ask] Does inhibition in vivo at 10 mg/kg meet or surpass 20% for `C#Cc1ccc(F)c(-c2ccccc2F)c1` ?
[reply] TRUE

[ask] Does inhibition in vivo at 10 mg/kg meet or surpass 20% for C#Cc1ccc(-c2ccccc2C)cc1 [(4-(o-tolyl)phenyl)acetylene, (4-(o-Tolyl)phenyl)acetylene] ?
[reply] FALSE

----------
Examples of compounds with documented inhibition in vivo at 10 mg/kg follow.
# test method notes: carrageenin-induced hind paw inflammation
# Format: in vivo
# condition label: Rattus norvegicus, 10 mg./kg.
Reply numerically in %, unit not repeated.

Example cases with answers are listed next.
C#Cc1ccc(-c2ccccc2)cc1OC ... 7
C#Cc1ccc(-c2ccccc2)c(Cl)c1 ... 62

Then this compound:
[ask] Fill in the blank: the reported inhibition in vivo at 10 mg/kg of `C#Cc1ccc(-c2c(F)cccc2F)cc1` is ____.
[reply] 34

----------
Examples of compounds with documented inhibition in vivo at 3 mg/kg follow.
# test method notes: carrageenin-induced hind paw inflammation
# Format: in vivo
# condition label: Rattus norvegicus, 3 mg./kg.
Reply numerically in %, unit not repeated.

[ask] Fill in the blank: the reported inhibition in vivo at 3 mg/kg of `C#Cc1ccc(-c2ccccc2)c(Cl)c1` is ____.
[reply] 41

[ask] Fill in the blank: the reported inhibition in vivo at 3 mg/kg of `C#Cc1ccc(F)c(-c2ccccc2F)c1` is ____.
[reply] 13

[ask] Fill in the blank: the reported inhibition in vivo at 3 mg/kg of `C#Cc1ccc(-c2ccccc2C)cc1` is ____.
[reply] 16

[ask] Fill in the blank: the reported inhibition in vivo at 3 mg/kg of `C#Cc1ccc(Oc2ccccc2F)cc1` is ____.
[reply] 28

[ask] Fill in the blank: the reported inhibition in vivo at 3 mg/kg of `C#Cc1ccc(-c2ccccc2)cc1` is ____.
[reply] 36

[ask] Fill in the blank: the reported inhibition in vivo at 3 mg/kg of `C#Cc1ccc(-c2c(F)cccc2F)cc1` is ____.
[reply] 7

[ask] Fill in the blank: the reported inhibition in vivo at 3 mg/kg of `C#Cc1ccc(-c2ccccc2)c(C)c1` is ____.
[reply] 37

----------
Examples of compounds with documented Estimated ED50 follow.
# test method notes: analgesic activity, acetic acid-induced writhing
# Format: in vivo, mouse (albino male)
# condition label: mouse, p.o., dose reducing writhing frequency by 50%; 30, 90, 180 minutes after administration
Reply numerically in mg/kg, unit not repeated.

Example cases with answers are listed next.
C#Cc1ccc(-c2ccccc2)cc1 ... 50
C#Cc1ccc(-c2cc(F)ccc2F)cc1 ... 10
C#Cc1ccc(-c2ccccc2)c(F)c1 ... 10

Then this compound:
[ask] Fill in the blank: the reported Estimated ED50 of `C#Cc1ccc(-c2ccccc2)cc1C` is ____.
[reply] 60

----------
# test method notes: carrageenin-induced hind paw inflammation
# Assay type: in vivo
# condition label: Rattus norvegicus, 30 mg./kg.
Threshold rule: inhibition in vivo at 30 mg/kg greater than or equal to 40% is yes (1); below that, no (0).

Here are 4 compounds together with their reported answers.
C#Cc1ccc(Oc2ccccc2F)cc1 [(4-(2-fluorophenoxy)phenyl)acetylene, (4-(2-Fluorophenoxy)phenyl)acetylene] ... yes (1)
C#Cc1ccc(-c2ccccc2)c(C)c1 [(3-methyl-4-phenylphenyl)acetylene, (3-Methyl-4-phenylphenyl)acetylene] ... yes (1)
C#Cc1ccc(F)c(-c2ccccc2F)c1 ... yes (1)
C#Cc1ccc(-c2ccccc2C)cc1 [(4-(o-tolyl)phenyl)acetylene, (4-(o-Tolyl)phenyl)acetylene] ... yes (1)

[ask] Does inhibition in vivo at 30 mg/kg meet or surpass 40% for C#Cc1ccc(-c2c(F)cccc2F)cc1 [(4-(2,6-difluorophenyl)phenyl)acetylene, (4-(2,6-Difluorophenyl)phenyl)acetylene] ?
[reply] no (0)

----------
# test method notes: analgesic activity, acetic acid-induced writhing
# Format: in vivo, mouse (albino male)
# condition label: mouse, p.o., dose reducing writhing frequency by 50%; 30, 90, 180 minutes after administration
Examples of molecules with documented Estimated ED50 follow.
Reply numerically in mg/kg, unit not repeated.

C#Cc1ccc(-c2ccc(F)cc2F)cc1 ... 4

Then this molecule:
[ask] Fill in the blank: the reported Estimated ED50 of `C#Cc1ccc(-c2cccc(F)c2)cc1` is ____.
[reply] 35

----------
# test method notes: analgesic activity, acetic acid-induced writhing
# Format: in vivo, mouse (albino male)
# condition label: mouse, p.o., dose reducing writhing frequency by 50%; 30, 90, 180 minutes after administration
Examples of molecules with documented Estimated ED50 follow.

C#Cc1ccc(Oc2ccccc2F)cc1 [(4-(2-fluorophenoxy)phenyl)acetylene, (4-(2-Fluorophenoxy)phenyl)acetylene] ... < 100 mg/kg

[ask] Fill in the blank: the reported Estimated ED50 of C#Cc1ccc(C2CCCCC2)c(Cl)c1 [(3-chloro-4-cyclohexylphenyl)acetylene, (3-Chloro-4-cyclohexylphenyl)acetylene] is ____.
[reply] < 100 mg/kg

[ask] Fill in the blank: the reported Estimated ED50 of C#Cc1ccc(Oc2ccccc2)c(C)c1 [(3-methyl-4-phenoxyphenyl)acetylene, (3-Methyl-4-phenoxyphenyl)acetylene] is ____.
[reply] < 100 mg/kg

----------
# test method notes: analgesic activity, acetic acid-induced writhing
# Format: in vivo, mouse (albino male)
# condition label: mouse, p.o., dose reducing writhing frequency by 50%; 30, 90, 180 minutes after administration
metric name: Estimated ED50

C#Cc1ccc(-c2ccccc2Cl)cc1 ... 20 to 100 mg/kg
C#Cc1cccc(-c2ccccc2)c1 ... 50 to 100 mg/kg

Then this molecule:
[ask] Fill in the blank: the reported Estimated ED50 of `C#Cc1cccc(Oc2ccccc2)c1` is ____.
[reply] < 100 mg/kg
